Target: T1, human calcitonin receptor on BHK570/CRE-luc cells (human, UniProt P30988 25-474)
T1 sequence (looked up): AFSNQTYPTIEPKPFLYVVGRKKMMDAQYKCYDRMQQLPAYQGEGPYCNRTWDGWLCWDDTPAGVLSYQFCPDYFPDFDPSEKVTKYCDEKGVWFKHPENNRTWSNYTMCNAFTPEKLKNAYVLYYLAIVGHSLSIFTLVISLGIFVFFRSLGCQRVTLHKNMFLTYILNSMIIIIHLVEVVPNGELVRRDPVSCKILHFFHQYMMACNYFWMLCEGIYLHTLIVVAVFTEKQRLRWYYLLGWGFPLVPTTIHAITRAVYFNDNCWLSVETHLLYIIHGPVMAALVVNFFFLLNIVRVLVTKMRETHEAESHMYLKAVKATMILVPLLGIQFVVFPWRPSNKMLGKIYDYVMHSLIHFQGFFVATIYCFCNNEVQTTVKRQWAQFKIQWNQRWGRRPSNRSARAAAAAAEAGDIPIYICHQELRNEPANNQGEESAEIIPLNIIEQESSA
Test: cell-based or functional assay
Numbered stars: 1 amine (or outer) side, 2 acyl side, 3 side chain; on linkers, the order of the positions; unused ones are H or OH. * marks the point of attachment. C20 diacid = O=C(O)CCCCCCCCCCCCCCCCCCC(=O)*; γGlu = O=C(O)[C@H](CCC(=O)[*:2])N[*:1]; C14 diacid = O=C(O)CCCCCCCCCCCCC(=O)*; AEEA = NCCOCCOCC(=O)O
PARAMETER: hCTR funct. EC50 (pM), tested with HSA

| BINDER | RESULT VALUE |
| --- | --- |
| {C20 diacid-γGlu-AEEA}-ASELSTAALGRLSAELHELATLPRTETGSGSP-NH2 [[N-terminal(C20 diacid-gGlu-OEG), des1, 30S, 31G]mimylin] | 30 |

I. {C20 diacid-γGlu-AEEA-AEEA}-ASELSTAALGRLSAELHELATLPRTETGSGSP-NH2 [[N-terminal(C20 diacid-gGlu-2xOEG), des1, 30S, 31G]mimylin]
II. {C14 diacid-γGlu}-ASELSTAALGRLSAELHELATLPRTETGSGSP-NH2 [[N-terminal(C14 diacid-gGlu), des1, 30S, 31G]mimylin]
Lookup: Consider entries I and II . Which has the numerically lower hCTR funct. EC50 (pM), tested with HSA? Please reply using the label of the selected record.
Found: II
